Numbers sourced from patent US7342027B2.

biological target: Cathepsin G (Calbiochem, 219373) (Homo sapiens, UniProt P08311); construct: purchased Calbiochem 219373; experiment: Selectivity study: cathepsin G (Suc-Ala-Ala-Pro-Phe-pNA); type: biochemical; conditions: 1 hour at 25° C., read-out: Cathepsins (IC50, nM) G
Sequence (P08311 21-244): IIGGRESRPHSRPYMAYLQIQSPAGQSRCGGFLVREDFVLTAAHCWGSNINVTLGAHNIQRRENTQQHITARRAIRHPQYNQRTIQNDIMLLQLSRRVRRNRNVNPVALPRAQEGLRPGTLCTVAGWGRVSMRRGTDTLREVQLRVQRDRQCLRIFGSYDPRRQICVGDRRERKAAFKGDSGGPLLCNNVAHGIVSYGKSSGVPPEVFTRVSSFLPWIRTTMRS
quantity.name: IC50

O=C(NC1(C(=O)NC2CCN(c3ccccc3[N+](=O)[O-])CC2=O)CCCCC1)c1cc2ccccc2o1 (stereo not shown) : > 1000 nM
CS(=O)(=O)c1ccccc1N1CCC(NC(=O)C2(NC(=O)c3ccco3)CCCCC2)C(=O)C1 (stereo not shown) : > 2460 nM
CS(=O)(=O)c1cc(F)ccc1N1CCC(NC(=O)C2(NC(=O)c3ccco3)CCCCC2)C(=O)C1 (stereo not shown) : > 810 nM
CS(=O)(=O)c1cc(F)ccc1N1CCC(NC(=O)C2(NC(=O)c3ccc(F)cc3)CCCCC2)C(=O)C1 (stereo not shown) : > 1000 nM

input: Entry O=C(NC1(C(=O)NC2CCN(c3ccccc3-n3cccc3)CC2=O)CCCCC1)c1cc2ccccc2o1 (stereo not shown) : reported IC50 = ?
output: > 1000 nM

input: Next: O=C(NC1(C(=O)NC2CCN(c3ccccc3N3CCCC3=O)CC2=O)CCCCC1)c1cc2ccccc2o1 (stereo not shown)
output: > 690 nM

input: Repeat with COc1ccc(N2CCC(NC(=O)C3(NC(=O)c4ccco4)CCCCC3)C(=O)C2)c(S(C)(=O)=O)c1 (stereo not shown)
output: > 1000 nM

###

target: Recombinant human cathepsin K (Homo sapiens, UniProt P43235); assay: Inhibition of cathepsin K activity (Z-Phe-Arg-AMC fluorescence assay); settings: 25 uM Z-Phe-Arg-AMC, pH 5.5, 1 hour at 37° C.
Counter-ions that a name gives are not always drawn.
quantity.name: IC50 (nM)
Give just the number in nM; leave the unit off.

Answered examples (5):
CS(=O)(=O)c1ccccc1N1CCC(NC(=O)C2(NC(=O)c3cc4cc(OCCN5CCCC5)ccc4o3)CCCCC2)C(=O)C1 (stereo not shown) [Example 165, hydrochloride] : 1.63
O=C(NC1(C(=O)NC2CCN(c3ccccc3-c3ccco3)CC2=O)CCCCC1)c1cc2ccccc2o1 (stereo not shown) : 1.93
CS(=O)(=O)c1ccccc1N1CCC(NC(=O)C2(NC(=O)c3cc(N4CCCC4=O)co3)CCCCC2)C(=O)C1 (stereo not shown) : 15.8
N#Cc1c(F)cccc1N1CCC(NC(=O)C2(NC(=O)c3cc4ccccc4o3)CCCCC2)C(=O)C1 (stereo not shown) : 10.4
O=C(NC1(C(=O)NC2CCN(c3ccccc3NC(=O)C3CC3)CC2=O)CCCCC1)c1cc2ccccc2o1 (stereo not shown) : 1.22

input: // query IC50 value for entry O=C(NC1(C(=O)NC2CCN(c3ccccc3[N+](=O)[O-])CC2=O)CCCCC1)c1cc2ccccc2o1 (stereo not shown)
output: 5.97

input: Another compound: CS(=O)(=O)c1cc(F)ccc1N1CCC(NC(=O)C2(NC(=O)c3ccco3)CCCCC2)C(=O)C1 (stereo not shown)
output: 2.69

###

Below, each of the compounds is paired with its reported IC50 value.
Molecular target: Recombinant human cathepsin K (Homo sapiens)
Sequence (P43235 115-329): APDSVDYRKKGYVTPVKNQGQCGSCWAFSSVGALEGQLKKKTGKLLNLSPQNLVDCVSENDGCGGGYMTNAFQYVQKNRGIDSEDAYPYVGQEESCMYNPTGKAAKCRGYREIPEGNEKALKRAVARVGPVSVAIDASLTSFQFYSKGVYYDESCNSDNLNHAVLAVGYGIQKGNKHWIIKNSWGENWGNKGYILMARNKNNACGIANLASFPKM
Assay: Inhibition of cathepsin K activity (Z-Phe-Arg-AMC fluorescence assay)
Settings: 25 uM Z-Phe-Arg-AMC, pH 5.5, 1 hour at 37° C.
Give just the number in nM; leave the unit off.

CS(=O)(=O)c1ccccc1N1CCC(NC(=O)C2(NC(=O)c3ccc(-c4ccccc4)cc3)CCCCC2)C(=O)C1 (centres unmarked) : 0.36
CS(=O)(=O)c1ccccc1N1CCC(NC(=O)C2(NC(=O)c3ccc(OCCN4CCCC4)cc3)CCCCC2)C(=O)C1 (centres unmarked) [Example 156] : 1.9
O=C(NC1(C(=O)NC2CCN(c3cc(C(F)(F)F)ccc3Cl)CC2=O)CCCCC1)c1cc2ccccc2s1 (centres unmarked) : 1.2
CS(=O)(=O)c1ccccc1N1CCC(NC(=O)C2(NC(=O)c3ccc(N4CCCC4=O)cc3)CCCCC2)C(=O)C1 (centres unmarked) : 3.07
Cc1occc1C(=O)NC1(C(=O)NC2CCN(c3ccccc3S(C)(=O)=O)CC2=O)CCCCC1 (centres unmarked) : 3.87

input: Please report the recorded IC50 for CSc1cc(F)ccc1N1CCC(NC(=O)C2(NC(=O)c3ccco3)CCCCC2)C(=O)C1 (centres unmarked) .
output: 10.4

input: # repeat for CS(=O)(=O)c1cc(F)ccc1N1CCC(NC(=O)C2(NC(=O)c3ccc(F)cc3)CCCCC2)C(=O)C1 (centres unmarked)
output: 4.77
